run description: Cytotoxicity against mouse NIH/3T3 cells at 5uM after 72 hrs by cyquant cells
Type: cell-based
experimental conditions: nih3t3, 72 h
endpoint label: Activity

sample smiles | Activity
C/C=C(\C)C(=O)O[C@H]1C[C@@H](C)[C@]2(O)CC[C@](C)(/C=C3/OC(=O)C(COC(C)=O)=C31)O2 | Toxic
C/C=C(\C)C(=O)OCC1=C2/C(=C\[C@@]3(C)CC[C@](O)(O3)[C@H](C)C[C@@H]2O)OC1=O | Non-toxic
C=C(C)C(=O)O[C@H]1C[C@@H](C)[C@]2(O)CC[C@](C)(/C=C3/OC(=O)C(CO)=C31)O2 | Non-toxic
CO[C@]12CC[C@](C)(/C=C3/OC(=O)C(CO)=C3[C@@H](O)C[C@H]1C)O2 | Non-toxic
C[C@@H]1C[C@H](O)C2=C(COC(=O)/C=C/c3ccc(F)cc3)C(=O)O/C2=C/[C@@]2(C)CC[C@]1(O)O2 | Toxic
C/C=C(/C)C(=O)O[C@H]1C[C@@H](C)[C@]2(O)CC[C@](C)(/C=C3/OC(=O)C(CO)=C31)O2 | Non-toxic
CC(=O)OCC1=C2/C(=C\[C@@]3(C)CC[C@](O)(O3)[C@H](C)C[C@@H]2O)OC1=O | Non-toxic

With those in mind, consider the next compound.
(Q) Need Activity, item C[C@@H]1C[C@H](O)C2=C(CO)C(=O)O/C2=C/[C@@]2(C)CC[C@]1(O)O2
(A) Non-toxic

----------
assayed system: Signal transducer and activator of transcription 1 (Mus musculus)
run description: Inhibition of Stat1 dimer DNA binding activity in EGF-stimulated mouse NIH3T3 nuclear extract expressing human EGFR assessed as residual activity at 5 uM preincubated for 30 mins followed by addition of radiolabeled probe hSIE for 30 mins by EMSA
Response field label: string, one of fulfilled (Activity strictly below 60%) or not fulfilled.

Field: example entries. Status: answers known.
sample smiles | label value
C/C=C(\C)C(=O)OCC1=C2/C(=C\[C@@]3(C)CC[C@](O)(O3)[C@H](C)C[C@@H]2O)OC1=O | fulfilled
C/C=C(\C)C(=O)O[C@H]1C[C@@H](C)[C@]2(O)CC[C@](C)(/C=C3/OC(=O)C(COC(C)=O)=C31)O2 | not fulfilled

(Q) Please state whether Activity is below 60% for C/C=C(\C)C(=O)O[C@H]1C[C@@H](C)[C@]2(OC)CC[C@](C)(/C=C3/OC(=O)C(COC(C)=O)=C31)O2
(A) fulfilled

----------
assayed system: Signal transducer and activator of transcription 1 (Mus musculus) (UniProt P42225)
Sequence (P42225 whole entry): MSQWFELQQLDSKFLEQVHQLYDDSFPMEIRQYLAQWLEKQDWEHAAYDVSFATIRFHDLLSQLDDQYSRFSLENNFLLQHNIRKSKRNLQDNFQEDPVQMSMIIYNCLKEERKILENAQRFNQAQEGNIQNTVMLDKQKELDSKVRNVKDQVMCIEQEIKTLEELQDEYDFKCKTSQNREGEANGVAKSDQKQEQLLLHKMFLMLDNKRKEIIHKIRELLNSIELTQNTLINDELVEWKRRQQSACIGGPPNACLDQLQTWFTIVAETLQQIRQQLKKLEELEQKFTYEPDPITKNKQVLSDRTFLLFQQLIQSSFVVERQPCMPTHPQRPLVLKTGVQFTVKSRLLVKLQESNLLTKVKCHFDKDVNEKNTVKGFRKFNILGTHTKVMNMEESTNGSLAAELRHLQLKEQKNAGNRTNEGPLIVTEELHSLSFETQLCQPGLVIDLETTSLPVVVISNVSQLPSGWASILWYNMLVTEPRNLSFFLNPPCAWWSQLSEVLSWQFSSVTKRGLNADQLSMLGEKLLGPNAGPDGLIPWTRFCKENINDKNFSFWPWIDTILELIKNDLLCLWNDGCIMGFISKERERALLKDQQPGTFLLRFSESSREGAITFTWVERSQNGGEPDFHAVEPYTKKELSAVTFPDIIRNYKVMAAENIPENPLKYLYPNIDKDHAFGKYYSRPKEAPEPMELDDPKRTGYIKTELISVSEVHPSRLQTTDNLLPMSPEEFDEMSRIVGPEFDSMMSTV
run description: Inhibition of Stat1 dimer DNA binding activity in EGF-stimulated mouse NIH3T3 nuclear extract expressing human EGFR at 5 uM preincubated for 30 mins followed by addition of radiolabeled probe hSIE for 30 mins by EMSA
Activity calls are given as the source filed them. The calls are words filed in the database; no cut-off is given here.

sample smiles | inhibition
C=C(C)C(=O)O[C@H]1C[C@@H](C)[C@]2(OC)CC[C@](C)(/C=C3/OC(=O)C(COC(C)=O)=C31)O2 | inactive
C=C(C)C(=O)O[C@H]1C[C@@H](C)[C@]2(O)CC[C@](C)(/C=C3/OC(=O)C(CO)=C31)O2 | inactive
C=C(C)C(=O)O[C@H]1C[C@@H](C)[C@]2(OC)CC[C@](C)(/C=C3/OC(=O)C(CO)=C31)O2 | inactive

----------
assayed system: UniProt:P42227
run description: Inhibition of Stat3 dimer DNA binding activity in mouse NIH3T3/vSrc nuclear extract at 5 uM preincubated for 30 mins followed by addition of radiolabeled probe hSIE for 30 mins by EMSA
The source made the active and inactive calls. The calls are words filed in the database; no cut-off is given here.
endpoint label: inhibition

compound | inhibition
C[C@@H]1C[C@H](O)C2=C(CO)C(=O)O/C2=C/[C@@]2(C)CC[C@]1(O)O2 | Active
C[C@@H]1C[C@H](O)C2=C(COC(=O)/C=C/c3ccc(F)cc3)C(=O)O/C2=C/[C@@]2(C)CC[C@]1(O)O2 | Active
C/C=C(/C)C(=O)O[C@H]1C[C@@H](C)[C@]2(O)CC[C@](C)(/C=C3/OC(=O)C(COC(C)=O)=C31)O2 | Active
C=C(C)C(=O)O[C@H]1C[C@@H](C)[C@]2(OC)CC[C@](C)(/C=C3/OC(=O)C(CO)=C31)O2 | Active
C=C(C)C(=O)O[C@H]1C[C@@H](C)[C@]2(O)CC[C@](C)(/C=C3/OC(=O)C(CO)=C31)O2 | Active
C[C@@H]1C[C@H](O)C2=C(COC(=O)/C=C/c3ccccc3)C(=O)O/C2=C/[C@@]2(C)CC[C@]1(O)O2 | Active

(Q) # inhibition lookup, item C[C@@H]1C[C@H](O)C2=C(COC(=O)/C=C/c3ccc(C(F)(F)F)cc3)C(=O)O/C2=C/[C@@]2(C)CC[C@]1(O)O2
(A) Active

(Q) Which inhibition is reported for this compound? CC(C)=CC(=O)OCC1=C2/C(=C\[C@@]3(C)CC[C@](O)(O3)[C@H](C)C[C@@H]2O)OC1=O
(A) Active

(Q) State the recorded inhibition for this entry: C/C=C(\C)C(=O)OCC1=C2/C(=C\[C@@]3(C)CC[C@](O)(O3)[C@H](C)C[C@@H]2O)OC1=O
(A) Active

(Q) # lookup: inhibition of CC(C)=CCC/C(C)=C/C(=O)OCC1=C2/C(=C\[C@@]3(C)CC[C@](O)(O3)[C@H](C)C[C@@H]2O)OC1=O
(A) Active

(Q) Looking for the measured inhibition of C/C=C(\C)C(=O)O[C@H]1C[C@@H](C)[C@]2(O)CC[C@](C)(/C=C3/OC(=O)C(COC(C)=O)=C31)O2 , can you help?
(A) Active

(Q) Any idea what inhibition was measured for C/C=C(\C)C(=O)O[C@H]1C[C@@H](C)[C@]2(O)CC[C@](C)(/C=C3/OC(=O)C(CO)=C31)O2 ?
(A) Active

(Q) Look at this compound and give its reported inhibition. C/C(=C\CO)C(=O)O[C@H]1C[C@@H](C)[C@]2(O)CC[C@](C)(/C=C3/OC(=O)C(CO)=C31)O2
(A) Active

----------
assayed system: Signal transducer and activator of transcription 3 (Mus musculus) (UniProt P42227)
Sequence (P42227 whole entry): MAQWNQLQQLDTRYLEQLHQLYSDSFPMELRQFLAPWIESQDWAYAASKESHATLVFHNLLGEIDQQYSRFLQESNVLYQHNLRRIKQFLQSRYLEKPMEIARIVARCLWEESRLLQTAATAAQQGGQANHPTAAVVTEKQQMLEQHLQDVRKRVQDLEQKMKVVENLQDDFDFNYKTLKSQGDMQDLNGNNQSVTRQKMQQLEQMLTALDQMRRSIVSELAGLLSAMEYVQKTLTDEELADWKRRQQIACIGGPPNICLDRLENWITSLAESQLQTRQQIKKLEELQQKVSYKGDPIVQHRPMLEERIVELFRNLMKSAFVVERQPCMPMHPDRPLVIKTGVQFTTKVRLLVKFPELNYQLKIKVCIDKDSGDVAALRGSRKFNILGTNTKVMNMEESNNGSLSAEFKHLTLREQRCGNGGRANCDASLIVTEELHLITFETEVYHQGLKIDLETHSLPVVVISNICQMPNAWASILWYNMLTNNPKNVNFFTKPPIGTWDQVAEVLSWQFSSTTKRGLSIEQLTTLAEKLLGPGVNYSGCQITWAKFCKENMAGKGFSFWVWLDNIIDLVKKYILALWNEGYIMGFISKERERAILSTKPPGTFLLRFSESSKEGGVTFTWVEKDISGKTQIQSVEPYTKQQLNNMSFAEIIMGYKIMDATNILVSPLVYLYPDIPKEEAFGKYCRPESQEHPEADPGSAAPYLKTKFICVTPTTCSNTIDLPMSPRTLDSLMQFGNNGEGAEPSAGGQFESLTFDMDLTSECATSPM
run description: Inhibition of Stat3 dimer DNA binding activity in EGF-stimulated mouse NIH3T3 nuclear extract expressing human EGFR assessed as residual activity at 5 uM preincubated for 30 mins followed by addition of radiolabeled probe hSIE for 30 mins by EMSA
The label Criterion met is reserved for Activity strictly under 50%; Criterion not met covers values equal to or above it.

Here's what some known entries look like.
sample smiles | label value
C/C=C(\C)C(=O)O[C@H]1C[C@@H](C)[C@]2(OC)CC[C@](C)(/C=C3/OC(=O)C(COC(C)=O)=C31)O2 | Criterion met
C/C=C(/C)C(=O)O[C@H]1C[C@@H](C)[C@]2(O)CC[C@](C)(/C=C3/OC(=O)C(CO)=C31)O2 | Criterion not met
C/C=C(/C)C(=O)O[C@H]1C[C@@H](C)[C@]2(O)CC[C@](C)(/C=C3/OC(=O)C(COC(C)=O)=C31)O2 | Criterion met
C/C=C(\C)C(=O)OCC1=C2/C(=C\[C@@]3(C)CC[C@](O)(O3)[C@H](C)C[C@@H]2O)OC1=O | Criterion met

As a next step, examine the molecule that follows.
(Q) Dear colleague, could you confirm whether Activity of CC(=O)OCC1=C2/C(=C\[C@@]3(C)CC[C@](O)(O3)[C@H](C)C[C@@H]2O)OC1=O falls below 50%? Thanks.
(A) Criterion met

----------
assayed system: RAC-alpha serine/threonine-protein kinase (Homo sapiens)
run description: Modulation of Akt phosphorylation in human U251MG cells at 5 uM after 0.5 to 24 hrs by immunoblot analysis
Type: cell-based
experimental conditions: U-251
Calls of active or inactive are those of the source. The calls are words filed in the database; no cut-off is given here.
endpoint label: Activity

sample smiles | endpoint label | result value
C/C=C(\C)C(=O)O[C@H]1C[C@@H](C)[C@]2(OC)CC[C@](C)(/C=C3/OC(=O)C(COC(C)=O)=C31)O2 | Activity | inactive
C/C=C(\C)C(=O)OCC1=C2/C(=C\[C@@]3(C)CC[C@](O)(O3)[C@H](C)C[C@@H]2O)OC1=O | Activity | inactive
C/C=C(/C)C(=O)O[C@H]1C[C@@H](C)[C@]2(O)CC[C@](C)(/C=C3/OC(=O)C(COC(C)=O)=C31)O2 | Activity | inactive
C/C=C(\C)C(=O)O[C@H]1C[C@@H](C)[C@]2(O)CC[C@](C)(/C=C3/OC(=O)C(COC(C)=O)=C31)O2 | Activity | inactive

----------
run description: Cytotoxicity against mouse NIH/3T3 cells after 72 hrs by cyquant cells
Assay type: cell-based
experimental conditions: NIH3T3, 72 h
Entries and their IC50
Quick note: give the figure in µM, leave out the unit.

sample smiles | endpoint label | result value
C/C=C(\C)C(=O)O[C@H]1C[C@@H](C)[C@]2(O)CC[C@](C)(/C=C3/OC(=O)C(COC(C)=O)=C31)O2 | IC50 | 2
C=C(C)C(=O)O[C@H]1C[C@@H](C)[C@]2(O)CC[C@](C)(/C=C3/OC(=O)C(COC(C)=O)=C31)O2 | IC50 | 7.1

(Q) Return reported IC50; argument: C/C=C(/C)C(=O)O[C@H]1C[C@@H](C)[C@]2(O)CC[C@](C)(/C=C3/OC(=O)C(COC(C)=O)=C31)O2
(A) 11.8
